- subject_of_test: Thrombin (bovine) (Bos taurus)
property_name: Ki (µM)

- molecule: "NCc1ccc(CNC(=O)[C@@H]2Cc3ccc(cc3)NC(=O)CCN3CCN(CCC(=O)Nc4ccc(cc4)C[C@@H](NS(=O)(=O)Cc4ccccc4)C(=O)N2)CC3)cc1 [Inhibitor 3]"
  value_reported: 141
- molecule: "N=C(N)c1ccc(CNC(=O)[C@@H]2Cc3ccc(cc3)NC(=O)CCN3CCN(CCC(=O)Nc4ccc(cc4)C[C@@H](N)C(=O)N2)CC3)cc1 [Inhibitor 6]"
  value_reported: 60.8
- molecule: "N=C(N)c1ccc(CNC(=O)[C@@H]2Cc3ccc(cc3)NC(=O)CN3CCN(CC3)CC(=O)Nc3ccc(cc3)C[C@@H](NC(=O)OCc3ccccc3)C(=O)N2)cc1 [Inhibitor 11]"
  value_reported: 46.9
- molecule: "N=C(N)c1ccc(CNC(=O)[C@@H]2Cc3ccc(cc3)NC(=O)CCN3CCN(CCC(=O)Nc4ccc(cc4)C[C@@H](NS(=O)(=O)NC4CCCCC4)C(=O)N2)CC3)cc1 [Inhibitor 1]"
  value_reported: 17
- molecule: "N=C(N)c1ccc(CNC(=O)[C@@H]2Cc3ccc(cc3)NC(=O)CCN3CCN(CCC(=O)Nc4ccc(cc4)C[C@@H](NC(=O)Cc4ccccc4)C(=O)N2)CC3)cc1 [Inhibitor 4]"
  value_reported: 41.8
